Biological target: RAC-alpha serine/threonine-protein kinase (Homo sapiens) (UniProt P31749)
Sequence (P31749 whole entry): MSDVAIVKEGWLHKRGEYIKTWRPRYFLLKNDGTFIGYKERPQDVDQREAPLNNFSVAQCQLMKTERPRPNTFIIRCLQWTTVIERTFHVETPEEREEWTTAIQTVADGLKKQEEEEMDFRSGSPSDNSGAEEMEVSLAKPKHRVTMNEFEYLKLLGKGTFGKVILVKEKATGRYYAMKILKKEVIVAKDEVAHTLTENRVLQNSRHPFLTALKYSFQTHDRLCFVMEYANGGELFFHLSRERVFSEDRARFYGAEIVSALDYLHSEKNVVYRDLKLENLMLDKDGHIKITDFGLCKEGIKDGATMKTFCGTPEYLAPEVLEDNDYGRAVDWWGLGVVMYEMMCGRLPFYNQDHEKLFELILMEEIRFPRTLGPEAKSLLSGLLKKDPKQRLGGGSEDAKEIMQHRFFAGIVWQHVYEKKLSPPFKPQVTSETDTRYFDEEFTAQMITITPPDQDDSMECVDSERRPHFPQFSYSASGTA
Test: Inhibition of human Protein kinase B alpha at 30 uM
observable: inhibition (%)
Give the quantity in %, number only.

molecule: Cn1c(-c2ccc(S(C)(=O)=O)cc2)nc2c(Sc3ccccc3)ncnc21
inhibition (%): 14
--
molecule: Nc1[nH]cnc2ncnc1-2
inhibition (%): 0
--
molecule: Fc1ccc(Cn2cnc3c(Cl)ncnc32)cc1
inhibition (%): 0
--
molecule: Cn1cnc2c(Nc3ccc(F)cc3)ncnc21
inhibition (%): 0

Inquiry: Recall and state the measured inhibition for Cn1c(-c2ccc([S+](C)[O-])cc2)nc2c(Sc3ccc(F)cc3)ncnc21 (stereo unspecified) .
Reply text: 10

Inquiry: Recall and state the measured inhibition for "Cn1cnc2c(Sc3ccc(F)cc3)ncnc21" .
Reply text: 0

====

Target: Tyrosine-protein kinase Lck (Homo sapiens)
Test: Inhibition of human lymphocyte protein tyrosine kinase Lck at 30 uM
observable: inhibition
Form field: result (number plus unit)

Example compounds with recorded inhibition:
compound: Cn1cnc2c(/C=C/c3ccccc3)ncnc21
inhibition: 1%

compound: Cn1c(-c2ccc(S(C)(=O)=O)cc2)nc2c(Sc3ccccc3)ncnc21
inhibition: 16%

compound: Cn1cnc2c(Nc3ccc(F)cc3)ncnc21
inhibition: 9%

compound: Cn1c(-c2ccccc2)nc2c(Sc3ccc(F)cc3)ncnc21
inhibition: 20%

compound: Cn1c(-c2ccc(S(C)(=O)=O)cc2)nc2c(Sc3ccc(F)cc3)ncnc21
inhibition: 10%

compound: Cn1cnc2c(SCc3ccccc3)ncnc21
inhibition: 6%

Inquiry: Recall and state the measured inhibition for "c1ccc(Cc2[nH]cnc3ncnc2-3)cc1" .
Reply text: 0%

Inquiry: Recall and state the measured inhibition for "Cn1cnc2c(Nc3ccccc3)ncnc21" .
Reply text: 18%

Inquiry: Recall and state the measured inhibition for "Cn1cnc2c(Sc3ccccc3)ncnc21" .
Reply text: 6%

Inquiry: Recall and state the measured inhibition for "Fc1ccc(-[n+]2c[nH]c3ncncc32)cc1" .
Reply text: 9%

Inquiry: Recall and state the measured inhibition for "COc1ncnc2ncn(Cc3ccc(F)cc3)c12" .
Reply text: 0%

Inquiry: Recall and state the measured inhibition for "Cn1c(-c2ccccc2)nc2c(-c3ccc(F)cc3)ncnc21" .
Reply text: 17%

Inquiry: Recall and state the measured inhibition for Cn1c(-c2ccc([S+](C)[O-])cc2)nc2c(Sc3ccc(F)cc3)ncnc21 (stereo not drawn) .
Reply text: 30%

Inquiry: Recall and state the measured inhibition for "Fc1ccc(Sc2ncnc3c2ncn3Cc2ccccc2)cc1" .
Reply text: 16%

====

Biological target: Glycogen synthase kinase-3 beta (Homo sapiens) (UniProt P49841)
Sequence (P49841 whole entry, looked up): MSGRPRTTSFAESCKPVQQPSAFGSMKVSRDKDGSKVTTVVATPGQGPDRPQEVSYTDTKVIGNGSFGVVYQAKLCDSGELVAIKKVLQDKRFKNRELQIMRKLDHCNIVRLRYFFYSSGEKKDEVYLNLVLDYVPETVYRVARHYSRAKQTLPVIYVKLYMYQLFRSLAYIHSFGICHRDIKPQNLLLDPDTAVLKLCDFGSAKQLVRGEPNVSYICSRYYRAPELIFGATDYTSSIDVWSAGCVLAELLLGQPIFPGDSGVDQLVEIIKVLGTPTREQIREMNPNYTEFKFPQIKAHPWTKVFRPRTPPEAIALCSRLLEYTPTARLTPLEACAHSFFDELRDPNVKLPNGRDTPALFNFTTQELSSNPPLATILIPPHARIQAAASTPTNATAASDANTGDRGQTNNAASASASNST
Assay: Inhibition of human Glycogen synthase kinase-3 beta at 30 uM
Property: inhibition; scope: individual compounds
Form field: result (number plus unit)

Example compounds with recorded inhibition:
molecule: Cn1cnc2c(Nc3ccccc3)ncnc21
inhibition: 26%
--
molecule: c1ccc(Sc2[nH]cnc3nccc2-3)cc1
inhibition: 11%
--
molecule: Cn1cnc2c(Sc3ccccc3)ncnc21
inhibition: 3%
--
molecule: c1ccc(Cn2cnc3c(Sc4ccccc4)ncnc32)cc1
inhibition: 1%

Inquiry: Recall and state the measured inhibition for "c1ccc(Cc2[nH]cnc3ncnc2-3)cc1" .
Reply text: 5%

Inquiry: Recall and state the measured inhibition for "Cn1cnc2c(Sc3ccc(F)cc3)ncnc21" .
Reply text: 0%

Inquiry: Recall and state the measured inhibition for "Nc1ncnc2c1ncn2Cc1ccccc1" .
Reply text: 7%

Inquiry: Recall and state the measured inhibition for "Cn1cnc2c(Nc3ccc(F)cc3)ncnc21" .
Reply text: 14%

Inquiry: Recall and state the measured inhibition for "c1ccc(C[n+]2c[nH]c3ncncc32)cc1" .
Reply text: 13%

Inquiry: Recall and state the measured inhibition for "Cn1c(Br)nc2c(Sc3ccccc3)ncnc21" .
Reply text: 19%

Inquiry: Recall and state the measured inhibition for "Cn1cnc2c(-c3ccccc3)ncnc21" .
Reply text: 11%

Inquiry: Recall and state the measured inhibition for "COc1ncnc2ncn(Cc3ccc(F)cc3)c12" .
Reply text: 5%

Inquiry: Recall and state the measured inhibition for "Cn1c(-c2ccccc2)nc2c(Sc3ccccc3)ncnc21" .
Reply text: 0%

Inquiry: Recall and state the measured inhibition for "Cn1c(-c2ccccc2)nc2c(-c3ccc(F)cc3)ncnc21" .
Reply text: 26%

Inquiry: Recall and state the measured inhibition for "Nc1ncnc2c1ncn2Cc1ccc(F)cc1" .
Reply text: 5%

Inquiry: Recall and state the measured inhibition for "Fc1ccc(Nc2[nH]cnc3ncnc2-3)cc1" .
Reply text: 0%

Inquiry: Recall and state the measured inhibition for "Nc1ncnc2ncn(Cc3ccc(F)cc3)c12" .
Reply text: 0%

====

Biological target: Mitogen-activated protein kinase 10 (Rattus norvegicus) (UniProt P49187)
Sequence (P49187 whole entry): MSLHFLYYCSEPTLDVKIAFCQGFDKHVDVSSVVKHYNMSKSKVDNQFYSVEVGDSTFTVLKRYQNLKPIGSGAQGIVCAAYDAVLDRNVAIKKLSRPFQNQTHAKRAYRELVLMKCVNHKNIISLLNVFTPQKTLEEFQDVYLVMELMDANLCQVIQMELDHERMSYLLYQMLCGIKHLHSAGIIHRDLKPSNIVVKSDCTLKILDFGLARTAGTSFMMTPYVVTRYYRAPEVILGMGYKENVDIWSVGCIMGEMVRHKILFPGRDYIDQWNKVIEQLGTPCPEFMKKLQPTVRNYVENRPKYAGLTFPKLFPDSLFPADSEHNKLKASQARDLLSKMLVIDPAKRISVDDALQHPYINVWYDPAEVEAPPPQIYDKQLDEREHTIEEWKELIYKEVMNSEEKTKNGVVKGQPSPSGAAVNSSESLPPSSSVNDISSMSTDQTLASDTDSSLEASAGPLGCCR
Assay: Inhibition of rat c-Jun N-terminal kinase-3 at 30 uM
Property: inhibition; scope: individual molecules
Give the quantity in %, number only.

Example molecules with recorded inhibition:
molecule: Fc1ccc(Cc2[nH]cnc3ncnc2-3)cc1
target.desc: Mitogen-activated protein kinase 10 (Rattus norvegicus) (UniProt P49187)
inhibition, %: 0
//
molecule: Fc1ccc(Sc2ncnc3c2ncn3Cc2ccccc2)cc1
target.desc: Mitogen-activated protein kinase 10 (Rattus norvegicus) (UniProt P49187)
inhibition, %: 0
//
molecule: Fc1ccc(Oc2[nH]cnc3ncnc2-3)cc1
target.desc: Mitogen-activated protein kinase 10 (Rattus norvegicus) (UniProt P49187)
inhibition, %: 0
//
molecule: c1ccc(Oc2ncnc3[nH]cnc23)cc1
target.desc: Mitogen-activated protein kinase 10 (Rattus norvegicus) (UniProt P49187)
inhibition, %: 0
//
molecule: c1ccc(Sc2ncnc3[nH]cnc23)cc1
target.desc: Mitogen-activated protein kinase 10 (Rattus norvegicus) (UniProt P49187)
inhibition, %: 0

Inquiry: // output inhibition; input "Fc1ccc(C[n+]2c[nH]c3ncncc32)cc1" ; system Mitogen-activated protein kinase 10 (Rattus norvegicus) (UniProt P49187)
Reply text: 12

Inquiry: // output inhibition; input "Nc1ncnc2c1ncn2Cc1ccc(F)cc1" ; system Mitogen-activated protein kinase 10 (Rattus norvegicus) (UniProt P49187)
Reply text: 9

Inquiry: // output inhibition; input "c1ccc(Nc2ncnc3[nH]cnc23)cc1" ; system Mitogen-activated protein kinase 10 (Rattus norvegicus) (UniProt P49187)
Reply text: 11

Inquiry: // output inhibition; input "c1ccc(CSc2ncnc3[nH]cnc23)cc1" ; system Mitogen-activated protein kinase 10 (Rattus norvegicus) (UniProt P49187)
Reply text: 7

Inquiry: // output inhibition; input "Cn1c(-c2ccccc2)nc2c(Sc3ccccc3)ncnc21" ; system Mitogen-activated protein kinase 10 (Rattus norvegicus) (UniProt P49187)
Reply text: 12

====

Target: Dual specificity mitogen-activated protein kinase kinase 1 (Homo sapiens)
Assay: Inhibition of human Mitogen activated protein kinase kinase 1 (MEK1) at 30 uM
Rule: class 1 for inhibition not less than 3%, class 0 for anything less.

Worked examples follow.
molecule: Fc1ccc(CSc2[nH]cnc3ncnc2-3)cc1
qualitative.label: class 0

molecule: c1ccc(Nc2ncnc3[nH]cnc23)cc1
qualitative.label: class 1

molecule: Cn1c(-c2ccccc2)nc2c(Sc3ccc(F)cc3)ncnc21
qualitative.label: class 1

Now turn to the next molecule.
Inquiry: Decide: is the reported value of inhibition for "Fc1ccc(C[n+]2c[nH]c3ncncc32)cc1" equal to or greater than 3%?
Reply text: class 0

====

Molecular target: Protein kinase C alpha type (Homo sapiens)
Experiment: Inhibition of human Protein kinase C alpha
Design: concentration or dose not given beside the values
Settings: concentration not given here
observable: inhibition (%)
Give the quantity in %, number only.

Inquiry: Recall and state the measured inhibition for "Cn1cnc2c(-c3ccccc3)ncnc21" .
Reply text: 14

Inquiry: Recall and state the measured inhibition for "Fc1ccc(Nc2[nH]cnc3ncnc2-3)cc1" .
Reply text: 17

Inquiry: Recall and state the measured inhibition for "Fc1ccc(Cn2cnc3c(Sc4ccc(F)cc4)ncnc32)cc1" .
Reply text: 0

Inquiry: Recall and state the measured inhibition for "Cn1cnc2c(SCc3ccccc3)ncnc21" .
Reply text: 13

Inquiry: Recall and state the measured inhibition for "Nc1[nH]cnc2ncnc1-2" .
Reply text: 6

Inquiry: Recall and state the measured inhibition for "Nc1ncnc2ncn(Cc3ccc(F)cc3)c12" .
Reply text: 14

Inquiry: Recall and state the measured inhibition for "c1ccc(Cc2[nH]cnc3ncnc2-3)cc1" .
Reply text: 7

Inquiry: Recall and state the measured inhibition for "Cn1c(-c2ccccc2)nc2c(Sc3ccccc3)ncnc21" .
Reply text: 13

Inquiry: Recall and state the measured inhibition for "Cn1cnc2c(Nc3ccccc3)ncnc21" .
Reply text: 2

Inquiry: Recall and state the measured inhibition for "Cn1cnc2c(Sc3ccc(F)cc3)ncnc21" .
Reply text: 7

Inquiry: Recall and state the measured inhibition for "Fc1ccc(Sc2[nH]cnc3nccc2-3)cc1" .
Reply text: 15

Inquiry: Recall and state the measured inhibition for "Clc1ncnc2ncn(Cc3ccccc3)c12" .
Reply text: 12

====

Molecular target: RAC-alpha serine/threonine-protein kinase (Homo sapiens)
Experiment: Inhibition of human Protein kinase B alpha at 30 uM
Property: inhibition; scope: individual molecules
Give the quantity in %, number only.

molecule: c1ccc(Cn2cnc3c(Sc4ccccc4)ncnc32)cc1
inhibition [%]: 1
//
molecule: Cn1c(C#CCCO)nc2c(Sc3ccccc3)ncnc21
inhibition [%]: 33
//
molecule: Cn1cnc2c(SCc3ccc(F)cc3)ncnc21
inhibition [%]: 11
//
molecule: Cn1c(-c2ccc(S(C)(=O)=O)cc2)nc2c(Sc3ccc(F)cc3)ncnc21
inhibition [%]: 4
//
molecule: Cn1c(-c2ccccc2)nc2c(-c3ccc(F)cc3)ncnc21
inhibition [%]: 31

Inquiry: // output inhibition; input "Fc1ccc(Cn2cnc3ncnc(Cl)c32)cc1" ; system RAC-alpha serine/threonine-protein kinase (Homo sapiens)
Reply text: 0
